Tested on: A549 NSCLC
EXPERIMENT_DESCRIPTION: NCI tumour cell line growth inhibition, 48 h
*1 amine or outer side, *2 acyl side, *3 side chain or, on linkers, in order; H or OH if unused. Where a SMILES comes first, the peptide text is derived from it. Bridges are numbered along the chain shown (N, C = ends). [ ]: non-standard residue; d: D form. X59 = COc1c(N[*:1])cccc1C(=O)O[C@H](C(=O)[C@H](C)C(=O)[*:2])C(C)C; X58 = CC(C)C[C@H](C(=O)[*:2])C(C)C(=O)C1CCCN1[*:1]; NMeY = CN[C@@H](Cc1ccc(O)cc1)C(=O)O; Lac = C[C@H](O)C(=O)O
Parameter TGI: see the listing below.

Illustrative cases are given below, each with its answer.
Query: Note down TGI recorded for COc1ccc(C[C@H]2C(=O)O[C@H](C)[C@H](NC(=O)[C@@H](CC(C)C)C(C)C(=O)C3CCCN3C(=O)[C@H](C)O)C(=O)Nc3cccc(c3OC)C(=O)O[C@@H](C(C)C)C(=O)[C@H](C)C(=O)N[C@@H](CC(C)C)C(=O)N3CCC[C@H]3C(=O)N2C)cc1 (stereo not given in full) (H-[Lac][X58]T[X59]LP[NMeY](Me); ester 3-C)
Result: > 12.5 µM

Query: Note down TGI recorded for [O-]/[N+](=N/c1ncc(-c2ccccc2)cn1)c1ncc(-c2ccccc2)cn1
Result: > 100 µM

Query: Note down TGI recorded for COc1ccc(C(=O)C/C(=N/NC(N)=S)C(=O)Nc2ccccc2)cc1
Result: > 100 µM

Query: Note down TGI recorded for Clc1ccc(-c2nc(C(Cl)Cl)nc3cc(-c4ccccc4)nn23)cc1
Result: 2.34 µM

Query: Note down TGI recorded for O=C(c1ccc(Cl)c(Cl)c1)N(C(=O)N1CCN(c2ccccc2)CC1)S(=O)(=O)c1ccccc1
Result: > 100 µM

Next:
Query: Note down TGI recorded for COC(=O)C1=C(C(=O)OC)C(OO)(c2ccccc2)OC1=O (stereo not given)
Result: > 100 µM

Query: Note down TGI recorded for COc1ccc(OC2OC(CO)C(O)C(O)C2O)cc1 (stereo not given)
Result: > 100 µM

Query: Note down TGI recorded for CNC(=O)/C(=C/c1ccc(OC)cc1)c1cc(OC)c(OC)c(OC)c1
Result: > 100 µM

Query: Note down TGI recorded for Oc1cc2c(cc1C(c1ccc3c(c1)OCO3)N1CCN(C(c3ccc4c(c3)OCO4)c3cc4c(cc3O)OCO4)CC1)OCO2 (stereo not given)
Result: > 100 µM

====

Parameter TGI: see the listing below.
System: TK-10 renal
EXPERIMENT_DESCRIPTION: NCI tumour cell line growth inhibition, 48 h

Illustrative cases are given below, each with its answer.
Query: Note down TGI recorded for CN(C)CCC(=O)N1CCc2c([nH]c3ccccc23)C1c1cccnc1 (stereo not drawn)
Result: > 100 µM

Query: Note down TGI recorded for CCNC1=C(NC(=O)c2ccc(OC)cc2)C(=O)c2ccccc2C1=O
Result: > 100 µM

Alright, here's another molecule for you.
Query: Note down TGI recorded for Cc1cc(Cl)cc2c1NC(=O)C2(O)CC(=O)c1ccc(F)cc1 (stereo not drawn)
Result: > 100 µM

====

Parameter TGI: see the listing below.
Test system: UACC-62 melanoma
EXPERIMENT_DESCRIPTION: NCI tumour cell line growth inhibition, 48 h

Illustrative cases are given below, each with its answer.
Query: Note down TGI recorded for N#CCCN(CCCN(C(=O)Nc1ccc(NC(=O)N(CCCN(CCC#N)C(N)=O)c2ccccc2)cc1)c1ccccc1)C(N)=O
Result: > 100 µM

Query: Note down TGI recorded for CCCCCCCC(=O)NS(=O)(=O)c1ccccc1
Result: > 100 µM

Query: Note down TGI recorded for O=C1O/C(=C\C=C\CO)C=C1/C=C/CO
Result: 39.8 µM

Next:
Query: Note down TGI recorded for C=C(C[C@@H](O)[C@H](C)NC(=O)OCc1ccccc1)C(=O)OC(C)(C)C
Result: > 100 µM

Reference source for all entries: PubChem BioAssay (NCI)
